Reference source for all entries: the supplement of paper PMC12667976

B1: library; numbered along this chain (parent)
chain: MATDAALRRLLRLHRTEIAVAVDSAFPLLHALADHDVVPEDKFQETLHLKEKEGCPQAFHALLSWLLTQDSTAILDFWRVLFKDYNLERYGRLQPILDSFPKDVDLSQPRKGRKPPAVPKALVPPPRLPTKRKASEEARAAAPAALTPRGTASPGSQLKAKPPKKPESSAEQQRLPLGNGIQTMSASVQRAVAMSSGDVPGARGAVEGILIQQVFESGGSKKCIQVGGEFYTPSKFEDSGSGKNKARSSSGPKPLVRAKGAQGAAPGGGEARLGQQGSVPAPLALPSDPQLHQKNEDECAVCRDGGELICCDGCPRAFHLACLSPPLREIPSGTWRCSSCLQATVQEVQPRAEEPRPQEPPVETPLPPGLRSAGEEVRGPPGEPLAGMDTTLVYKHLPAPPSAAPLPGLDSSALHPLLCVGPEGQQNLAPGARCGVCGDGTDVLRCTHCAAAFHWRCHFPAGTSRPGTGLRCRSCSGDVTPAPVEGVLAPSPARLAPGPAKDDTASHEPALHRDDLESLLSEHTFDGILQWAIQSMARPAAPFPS

# Variants of: B1
# assay_details: AIRE transcriptional activation functional score (insulin promoter-GFP; nonsense median 0, synonymous median 1) (normalised score); higher = higher AIRE activity (more reporter activation)
# conditions: with insulin promoter-GFP reporter in HEK293
Threshold rule: AIRE transcriptional activation functional score greater than or equal to 0.7 is YES; below that, NO.

Prompt line: Does A352W have a reported AIRE transcriptional activation functional score of at least 0.7?
Response line: YES

Prompt line: L81G , same question.
Response line: NO

Prompt line: D4H , same question.
Response line: NO

Prompt line: P360N , same question.
Response line: YES

Prompt line: L414V , same question.
Response line: YES

Prompt line: A258P , same question.
Response line: YES

Prompt line: E517D , same question.
Response line: YES

Prompt line: S535L , same question.
Response line: NO

Prompt line: M388S , same question.
Response line: YES

Prompt line: A202K , same question.
Response line: NO

Prompt line: S135Q , same question.
Response line: YES

Prompt line: S24H , same question.
Response line: NO

Prompt line: V420A , same question.
Response line: YES

Prompt line: A532T , same question.
Response line: YES
